TEST_TARGET: T1, Human GDF15 native: naturally produced human GDF15 purchased from Peprotech (human, UniProt Q99988 195-308)
T1 construct: Bought protein
T1 sequence: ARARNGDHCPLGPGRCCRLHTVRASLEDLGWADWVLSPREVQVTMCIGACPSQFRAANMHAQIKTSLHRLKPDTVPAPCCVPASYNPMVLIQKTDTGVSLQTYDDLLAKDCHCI
ASSAY_PROTOCOL: Biacore SPR, IgG captured via anti-human Fc, GDF15 in flow
ENDPOINT: kon (M⁻¹ s⁻¹)
Give bare numbers, in M⁻¹ s⁻¹.

Use the examples below as a reference point.
BINDER	ENDPOINT	TEST_RESULT
ABGDF15-C (antibody, human IgG1, lambda, V domains shown, captured through anti-human Fc in the Biacore assay) VH: QVQLVQSGAEVKKPGSSVKVSCKASGGTFRSYAVSWVRQAPGQGLEWMGGIIPIFGTANYAQKFQGRVTITADESTSTAYMELSSLRSEDTAVYYCARGPIIMGYQFGLFDHWGQGTLVTVSS VL: SYELTQPPSVSVSPGQTASITCSGDNIGSHIVSWYQQKPGQSPVLVIYDKSNRPSGIPERFSGSNSGNTATLTISGTQAMDEADYYCQTWDSIGSVVFGGGTKLTVLG	kon	5.92e+06
ABGDF15-G (antibody, human IgG1, kappa, V domains shown, captured through anti-human Fc in the Biacore assay) VH: QVQLVQSGAEVKKPGSSVKVSCKASGGTFSSHYINWVRQAPGQGLEWMGGIIPAFGGANYAQKFQGRVTITADESTSTAYMELSSLRSEDTAVYYCARFGSVYVSRYSSYYHMDVWGQGTLVTVSS VL: DIQMTQSPSSLSASVGDRVTITCRASQTIYRSLAWYQQKPGKAPKLLIYGASILQSGVPSRFSGSGSGTDFTLTISSLQPEDFATYYCLQRYTSPFTFGQGTKVEIKR	kon	5.8e+06
ABGDF15-A (antibody, human IgG1, kappa, V domains shown, captured through anti-human Fc in the Biacore assay) VH: EVQLVQSGAEVKKPGESLKISCKGSGYSFTDYWISWVRQMPGKGLEWMGIIDPSGSYTIYSPSFQGQVTISADKSISTAYLQWSSLKASDTAMYYCARVSYYGGYFDIWGQGTLVTVSS VL: DIQMTQSPSSLSASVGDRVTITCRASQSISNNLNWYQQKPGKAPKLLIYAASNLQSGVPSRFSGSGSGTDFTLTISSLQPEDFATYYCFQLDHSPFTFGQGTKVEIKR	kon	3.3e+07

Attention now turns to another entry.
Value of measured kon for the entry ABGDF15-F (antibody, human IgG1, lambda, V domains shown, captured through anti-human Fc in the Biacore assay) VH: EVQLVQSGAEVKKPGESLKISCKGSGYSFTSYWIGWVRQMPGKGLEWMGVIDPSGSYTIYSPSFQGQVTISADKSISTAYLQWSSLKASDTAMYYCARYGRYGTYFDYWGQGTLVTVSS VL: QSVLTQPPSVSGAPGQRVTISCSGSSSNIGVLYVNWYQQLPGTAPKLLIYSNDNRPSGVPDRFSGSKSGTSASLAITGLQAEDEADYYCQSWDSSSNYVFGGGTKLTVLG : 1.89e+07
